- measurement.target: T1, Reg1_301-599 (human Regnase-1 amino acids 301 to 599, FLAG tag on the N-terminal side, BirA recognition … (human))
- T1 sequence (Q5D1E8 301-599, looked up): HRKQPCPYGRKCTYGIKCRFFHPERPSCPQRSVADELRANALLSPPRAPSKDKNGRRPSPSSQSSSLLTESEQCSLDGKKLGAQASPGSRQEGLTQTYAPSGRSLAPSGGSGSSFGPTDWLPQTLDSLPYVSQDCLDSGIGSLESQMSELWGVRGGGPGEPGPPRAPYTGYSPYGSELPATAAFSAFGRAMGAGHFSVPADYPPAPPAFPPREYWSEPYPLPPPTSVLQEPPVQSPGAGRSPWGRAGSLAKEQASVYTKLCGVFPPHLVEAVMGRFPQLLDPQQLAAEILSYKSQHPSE
- assay.explanation: cell-based or functional assay
Positions of bridges follow the written chain, without caps; N, C: chain ends. Non-standard residues stand in square brackets, D forms with d. No end group written: not given here. NMeA = CN[C@@H](C)C(=O)O; dNMeA = CN[C@H](C)C(=O)O
observable: IC50, phosphorylation by IKKβ

For orientation, consider the following solved cases.
[NMeA]KFAQFRWIYPD (lactam N-12) [PP11]; > 62.1 µM
[NMeA]KFWIHHSFED (lactam N-11) [PP20]; > 62.1 µM

Below: the item to evaluate.
// sample [dNMeA]PTSSWYKIWD (lactam N-11) [PP23] , its IC50, phosphorylation by IKKβ was > 62.1 µM
